System: NCI-H1793
test: relative viability (nuclei count vs DMSO), 5 days (fraction); higher = more cells survive
experimental_conditions: first compound 0.8 µM
result_type: relative viability

Cc1cnc(-c2cnc(NCCNc3ccc(C#N)cn3)nc2-c2ccc(Cl)cc2Cl)[nH]1 + CCNC(=O)c1noc(-c2cc(C(C)C)c(O)cc2O)c1-c1ccc(CN2CCOCC2)cc1 [Luminespib] (partner 0.01 µM)
0.147
O=c1[nH]c2ccccc2n1C1CCN(CCCC(c2ccc(F)cc2)c2ccc(F)cc2)CC1 [Pimozide] + CCNC(=O)c1noc(-c2cc(C(C)C)c(O)cc2O)c1-c1ccc(CN2CCOCC2)cc1 [Luminespib] (partner 0.01 µM)
0.207
O=c1[nH]c2ccccc2n1C1CCN(CCCC(c2ccc(F)cc2)c2ccc(F)cc2)CC1 [Pimozide] + COc1cccc2cc(-c3nc([C@H]4CC[C@H](C(=O)O)CC4)n4ncnc(N)c34)[nH]c12 [OSI-027] (partner 0.5 µM)
0.205
O=c1[nH]c2ccccc2n1C1CCN(CCCC(c2ccc(F)cc2)c2ccc(F)cc2)CC1 [Pimozide] + Cc1nc(Nc2ncc(C(=O)Nc3c(C)cccc3Cl)s2)cc(N2CCN(CCO)CC2)n1 [Dasatinib] (partner 0.075 µM)
0.343
Cc1cnc(-c2cnc(NCCNc3ccc(C#N)cn3)nc2-c2ccc(Cl)cc2Cl)[nH]1 + CS(=O)(=O)CCNCc1ccc(-c2ccc3ncnc(Nc4ccc(OCc5cccc(F)c5)c(Cl)c4)c3c2)o1 [Lapatinib] (partner 2 µM)
0.721
O=c1[nH]c2ccccc2n1C1CCN(CCCC(c2ccc(F)cc2)c2ccc(F)cc2)CC1 [Pimozide] + CC1(C)CCC(c2ccc(Cl)cc2)=C(CN2CCN(c3ccc(C(=O)NS(=O)(=O)c4ccc(N[C@H](CCN5CCOCC5)CSc5ccccc5)c(S(=O)(=O)C(F)(F)F)c4)cc3)CC2)C1 [Navitoclax] (partner 0.5 µM)
0.389
O=c1[nH]c2ccccc2n1C1CCN(CCCC(c2ccc(F)cc2)c2ccc(F)cc2)CC1 [Pimozide] + N=C(N)NC(=N)NCCc1ccccc1 [Phenformin] (partner 250 µM)
0.226
Cc1cnc(-c2cnc(NCCNc3ccc(C#N)cn3)nc2-c2ccc(Cl)cc2Cl)[nH]1 + C[C@]1(O)C[C@@H](c2nc(-c3ccc4ccc(-c5ccccc5)nc4c3)c3c(N)nccn32)C1 [Linsitinib] (partner 1 µM)
0.809
Cc1cnc(-c2cnc(NCCNc3ccc(C#N)cn3)nc2-c2ccc(Cl)cc2Cl)[nH]1 + CC(=O)Nc1cccc(-n2c(=O)n(C3CC3)c(=O)c3c(Nc4ccc(I)cc4F)n(C)c(=O)c(C)c32)c1 [Trametinib] (partner 0.02 µM)
0.422
Cc1cnc(-c2cnc(NCCNc3ccc(C#N)cn3)nc2-c2ccc(Cl)cc2Cl)[nH]1 + CS(=O)(=O)N1CCN(Cc2cc3nc(-c4cccc5[nH]ncc45)nc(N4CCOCC4)c3s2)CC1 [Pictilisib] (partner 1 µM)
0.412

* * *

Test system: HCC-78
test: relative viability (nuclei count vs DMSO), 5 days (fraction); higher = more cells survive
experimental_conditions: first compound 0.01581 µM
result_type: relative viability

Nc1ccn([C@@H]2O[C@H](CO)[C@@H](O)[C@@H]2O)c(=O)n1 [Cytarabine] + NC(=O)Nc1cc(-c2cccc(F)c2)sc1C(=O)N[C@H]1CCCNC1 [AZD7762] (partner 0.2 µM)
0.779
COc1cc2nccc(Oc3ccc(NC(=O)Nc4cc(C)on4)c(Cl)c3)c2cc1OC [Tivozanib] + CS(=O)(=O)CCNCc1ccc(-c2ccc3ncnc(Nc4ccc(OCc5cccc(F)c5)c(Cl)c4)c3c2)o1 [Lapatinib] (partner 2 µM)
0.772
COc1cc2nccc(Oc3ccc(NC(=O)Nc4cc(C)on4)c(Cl)c3)c2cc1OC [Tivozanib] + Cc1nc(Nc2ncc(C(=O)Nc3c(C)cccc3Cl)s2)cc(N2CCN(CCO)CC2)n1 [Dasatinib] (partner 0.075 µM)
0.387

Values from the supplement of paper PMC10307832
